Target: recombinant human VAP-1 (Homo sapiens, UniProt Q16853)
Construct: purchased R&D systems
Sequence (Q16853 whole entry): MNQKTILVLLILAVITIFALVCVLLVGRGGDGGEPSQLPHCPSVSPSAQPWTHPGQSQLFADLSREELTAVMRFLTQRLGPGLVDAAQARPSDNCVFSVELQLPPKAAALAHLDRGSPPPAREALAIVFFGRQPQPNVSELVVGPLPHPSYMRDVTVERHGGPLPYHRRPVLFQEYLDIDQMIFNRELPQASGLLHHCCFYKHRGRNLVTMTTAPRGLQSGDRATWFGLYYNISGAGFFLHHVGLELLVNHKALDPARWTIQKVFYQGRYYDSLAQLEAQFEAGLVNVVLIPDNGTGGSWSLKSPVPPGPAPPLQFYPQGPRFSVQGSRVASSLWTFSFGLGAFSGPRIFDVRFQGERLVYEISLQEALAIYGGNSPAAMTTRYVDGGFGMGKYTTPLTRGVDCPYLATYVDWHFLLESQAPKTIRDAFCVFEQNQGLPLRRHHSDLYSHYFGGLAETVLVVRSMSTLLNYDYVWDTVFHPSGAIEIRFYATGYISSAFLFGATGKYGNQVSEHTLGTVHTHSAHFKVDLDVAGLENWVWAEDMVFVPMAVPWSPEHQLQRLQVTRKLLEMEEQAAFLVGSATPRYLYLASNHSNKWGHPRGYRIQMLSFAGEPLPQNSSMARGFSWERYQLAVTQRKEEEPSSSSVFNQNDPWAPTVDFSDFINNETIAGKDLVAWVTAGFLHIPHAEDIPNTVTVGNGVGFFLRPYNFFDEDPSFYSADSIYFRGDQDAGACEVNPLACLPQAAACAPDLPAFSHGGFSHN
Assay: Activity on recombinant human VAP-1, HRP-coupled Amplex Red hydrogen peroxide assay
Type: biochemical
Conditions: substrate 1 mM benzylamine; compound incubated with enzyme at 37° C. for 30 minutes; pH 7.4; read-out: Inhibitory Activity (IC50, nM) human VAP-1
Counter-ions that a name gives are not always drawn.
Criterion: IC50 strictly less than 0.4 nM. Met: 1. Not met: 0.

Incoming: # TODO verify IC50 < 0.4 nM strictly for this compound: Cn1cc(-c2ccc(Cn3cnn(C/C(=C/F)CN)c3=O)s2)cn1 [Example 142]
Outgoing: 0

Incoming: Decide: IC50 of Cn1nc(C(F)(F)F)cc1-c1ccc(Cn2cnn(C/C(=C/F)CN)c2=O)s1 [Example 162] strictly below 0.4 nM?
Outgoing: 0

Incoming: Please state whether IC50 is below 0.4 nM for CN1CC=C(c2ccc(Cn3cnn(C/C(=C/F)CN)c3=O)s2)CC1 [Example 58, hydrochloride]
Outgoing: 0

Incoming: Decide: IC50 of Cc1c(-c2ccc(Cn3cnn(C/C(=C/F)CN)c3=O)s2)ccc2c1NC(=O)CC2 [Example 88] strictly below 0.4 nM?
Outgoing: 1

Incoming: Quick check: IC50 of CC(C)c1nc(-c2ccc(-c3ccc(Cn4cnn(C/C(=C/F)CN)c4=O)s3)cc2)no1 [Example 37, hydrochloride] under 0.4 nM?
Outgoing: 0

Incoming: # TODO verify IC50 < 0.4 nM strictly for this compound: NC/C(=C\F)Cn1ncn(Cc2ccc(-c3ccc4c(c3)NC(=O)OC4)s2)c1=O [Example 100, hydrochloride]
Outgoing: 1

Incoming: Lab note: confirm whether the reported IC50 for this compound is below 0.4 nM, equality not counting. compound: Cc1cc(-c2ccc(Cn3cnn(C/C(=C/F)CN)c3=O)s2)n(C)n1 [Example 158]
Outgoing: 0
